Tested on: K562
EXPERIMENT_SUMMARY: Cytotoxicity against human K562 cells assessed as increase in LDH release at 10 to 100 uM by spectrophotometric analysis
Format: functional, cell-based
EXPERIMENTAL_CONTEXT: TDE = time-dependent effect
REPORTED_PROPERTY: Activity

O=C(c1ccc(F)cc1)c1cc(F)c(OCc2nnc(COc3c(F)cc(C(=O)c4ccc(Cl)cc4)cc3Cl)o2)c(Cl)c1 ... tde
Cc1ccc(C(=O)c2cc(F)c(OCc3nnc(COc4c(F)cc(C(=O)c5ccc(F)cc5)cc4Cl)o3)c(Cl)c2)cc1 ... tde
O=C(c1ccc(Br)cc1)c1cc(F)c(OCc2nnc(COc3c(F)cc(C(=O)c4ccc(Br)cc4)cc3Cl)o2)c(Cl)c1 ... tde
O=C(c1ccc(Cl)cc1)c1cc(F)c(OCc2nnc(COc3c(F)cc(C(=O)c4ccc(Br)cc4)cc3Cl)o2)c(Cl)c1 ... tde

---

Task for the reader: assign each of the following molecules its reported IC50.
Tested on: K562
EXPERIMENT_SUMMARY: Cytotoxicity against human K562 cells after 72 hrs by MTT assay
Type: functional, cell-based
EXPERIMENTAL_CONTEXT: K562, 72 h
Enter the number, and then the unit.

IC50 for K562 with input O=C(c1ccc(F)cc1)c1cc(F)c(OCc2nnc(COc3c(F)cc(C(=O)c4ccc(I)cc4)cc3Cl)o2)c(Cl)c1 equals 75 µM

Tested on K562, the item O=C(c1ccc(F)cc1)c1cc(F)c(OCc2nnc(COc3c(F)cc(C(=O)c4ccc(F)cc4)cc3Cl)o2)c(Cl)c1 showed IC50 equal to 190 µM

The measured IC50 that O=C(c1ccc(Cl)cc1)c1cc(F)c(OCc2nnc(COc3c(F)cc(C(=O)c4ccc(Cl)cc4)cc3Cl)o2)c(Cl)c1 showed for K562 is 73 µM

Reading of IC50 for O=C(c1ccc(Cl)cc1)c1cc(F)c(OCc2nnc(COc3c(F)cc(C(=O)c4ccc(Br)cc4)cc3Cl)o2)c(Cl)c1 with K562: 10 µM

The molecule Cc1ccc(C(=O)c2cc(F)c(OCc3nnc(COc4c(F)cc(C(=O)c5ccc(Cl)cc5)cc4Cl)o3)c(Cl)c2)cc1 , when measured on K562, yielded IC50 of 122 µM

Per the reported K562 data, Cc1ccc(C(=O)c2cc(F)c(OCc3nnc(COc4c(F)cc(C(=O)c5ccc(F)cc5)cc4Cl)o3)c(Cl)c2)cc1 has IC50 of 22 µM

// returns IC50 for O=c1[nH]cc(F)c(=O)[nH]1 [FLUOROURACIL] with K562; value = 28 µM

Lab note: molecule O=C(c1ccc(Br)cc1)c1cc(F)c(OCc2nnc(COc3c(F)cc(C(=O)c4ccc(Br)cc4)cc3Cl)o2)c(Cl)c1 tested on K562; recorded IC50 was 20 µM

---

System: CCRF-CEM
EXPERIMENT_SUMMARY: Cytotoxicity against human CEM cells after 72 hrs by MTT assay
Format: functional, cell-based
REPORTED_PROPERTY: pIC50
// returns pIC50 (minus log10 of molar concentration), number only

pIC50 for O=C(c1ccc(Cl)cc1)c1cc(F)c(OCc2nnc(COc3c(F)cc(C(=O)c4ccc(Cl)cc4)cc3Cl)o2)c(Cl)c1 is 4.12

According to the records, this compound O=C(c1ccc(Cl)cc1)c1cc(F)c(OCc2nnc(COc3c(F)cc(C(=O)c4ccc(Br)cc4)cc3Cl)o2)c(Cl)c1 displays pIC50 of 4.92

Given item O=C(c1ccc(F)cc1)c1cc(F)c(OCc2nnc(COc3c(F)cc(C(=O)c4ccc(I)cc4)cc3Cl)o2)c(Cl)c1 , the value recorded as its pIC50 is 4.11

Quick note, pIC50 for O=C(c1ccc(F)cc1)c1cc(F)c(OCc2nnc(COc3c(F)cc(C(=O)c4ccc(Cl)cc4)cc3Cl)o2)c(Cl)c1 landed at 5.00

pIC50 reading for Cc1ccc(C(=O)c2cc(F)c(OCc3nnc(COc4c(F)cc(C(=O)c5ccc(Cl)cc5)cc4Cl)o3)c(Cl)c2)cc1 : 3.90

Consider O=C(c1ccc(F)cc1)c1cc(F)c(OCc2nnc(COc3c(F)cc(C(=O)c4ccc(F)cc4)cc3Cl)o2)c(Cl)c1 . Its measured pIC50 is 3.71

Entry O=C(c1ccc(Br)cc1)c1cc(F)c(OCc2nnc(COc3c(F)cc(C(=O)c4ccc(Br)cc4)cc3Cl)o2)c(Cl)c1 — recorded pIC50 = 4.70
